Data provenance: PubChem BioAssay AID1159580

- test: chemical genetic growth profiling, strain panel (AID 1159580);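 also: tested at 20 µM; growth read once vehicle control cultures reached saturation at 30 °C; 1 = growth at the plate median or of vehicle wells; lower values mean less growth of the strain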
- particulars: S. cerevisiae deletion strains, growth OD, locus YHR079C, strain IRE1
Among all 5,500 compounds or so, about 2,000 (36%) were called active. Not shown: some 18% with an inconclusive outcome. Rule as the data show it: active = normalized growth mostly below about 0.91 (no sharp cut-off); inconclusive = no clear call, values can overlap the other calls; inactive = mostly above about 0.92. The list shows a part of the results.
Give one outcome, nothing more. List: class 1 for active, class 0 for inactive

Study these solved cases before continuing.
| molecule | group_label |
| --- | --- |
| COc1cc2c(cc1OC)[C@@]13CCN4CC5=CCOC6CC(=O)N2C1[C@H]6[C@H]5C[C@H]43 (stereo not given in full) | class 0 |
| CS/C(Nc1cccc(C(F)(F)F)c1)=C(/C#N)S(=O)(=O)c1ccc(Cl)cc1 | class 0 |
| COc1cc2cc3c4cc(OC)c(OC)cc4cc[n+]3c(C)c2cc1OC | class 0 |
| CC(C)(C)C(=O)c1sc2sc(C(=O)C(C)(C)C)c(N)c2c1N | class 1 |

Input line: Record request — test call for Clc1ccc(N/N=C\c2sccc2Oc2ccccc2)cc1
Output line: class 1

* * *

- test: chemical genetic growth profiling, strain panel (AID 1159580)
- particulars: S. cerevisiae deletion strains, growth OD, locus YPL241C, strain CIN2, hits give low values
Screen size: about 5,500 compounds; about 2,000 (36%) were called active. Roughly 18% stayed inconclusive and do not appear here. This is one part of the list.
Please note: normalized growth exactly at 1 is not satisfied. Only values below 1 get satisfied.

Study these solved cases before continuing.
| chem_smiles | group_label |
| --- | --- |
| COC(=O)c1ccccc1CSc1nccc(C(F)(F)F)n1 | satisfied |
| C=CCn1c(COc2c(Br)cc(C)c3c2CCC3)n[nH]c1=S | satisfied |
| CC1=C(O)C(=O)C=C2C1=CC=C1[C@@]2(C)CC[C@@]2(C)[C@@H]3C[C@](C)(C(=O)O)CC[C@]3(C)CC[C@]12C | satisfied |

Input line: A record lists Cc1ccc(OCc2nnc(SCC(=O)c3ccc(F)cc3)n2-c2ccccc2)c2c1CCC2 . Is its normalized growth below 1?
Output line: not satisfied

Input line: Would you kindly repeat that for Cc1[nH]n(C)c(=O)c1N=Nc1ccc(Cl)cc1 ?
Output line: satisfied

* * *

Entries and their measured normalized growth follow.
- test: chemical genetic growth profiling, strain panel (AID 1159580)
- particulars: S. cerevisiae deletion strains, growth OD, locus YPL106C, strain sse1, hits give low values
Out of some 5,500 compounds screened, about 2,000 (36%) were called active. Not shown: some 18% with an inconclusive outcome. The list shows a part of the results.

| chem_smiles | normalized growth |
| --- | --- |
| CCCc1nc2c(C)cc(-c3nc4ccccc4n3C)cc2n1Cc1ccc(-c2ccccc2C(=O)O)cc1 | 0.996 (inactive) |
| NC(=O)NO | 0.984 (inactive) |

Input line: Look up normalized growth for this molecule: CCOC([O-])=Nc1c[n+](N2CCOCC2)no1
Output line: 0.963 (inactive)

Input line: Would you kindly repeat that for CCCCc1nc(Cl)c(CO)n1Cc1ccc(-c2ccccc2-c2nn[nH]n2)cc1 ?
Output line: 0.964 (inactive)

* * *

- test: chemical genetic growth profiling, strain panel (AID 1159580)
- particulars: S. cerevisiae deletion strains, growth OD, locus YLR258W, strain gsy2, hits give low values
The whole screen tested about 5,500 compounds, of which about 2,000 (36%) were called active. About 18% were inconclusive and are not listed. The list shows a part of the results.
readout_name: normalized growth
Answer using only a numeral; do not append any unit.

Look over these answered cases.
| compound | recorded_measurement |
| --- | --- |
| CN1CCN(CCCN2c3ccccc3Sc3ccc(C(F)(F)F)cc32)CC1 | 0.0705 |
| CN[C@@H]1[C@@H](O[C@H]2O[C@H](CO)[C@@H](N)[C@H](O)[C@H]2O)O[C@H]2C[C@@H](N)[C@H](O[C@H]3[C@H](O)[C@@H](O)[C@H](N)C[C@@H]3N)O[C@@H]2[C@@H]1O | 1 |
| NC[C@H]1O[C@H](O[C@H]2C(O[C@@H]3O[C@H](CO)[C@@H](O)[C@H]3O)[C@@H](O)[C@H](N)C[C@@H]2N)[C@H](N)[C@@H](O)[C@@H]1O (stereo partly specified) | 0.995 |
| C=C(C)[C@H]1Cc2c(ccc3c2O[C@@H]2COc4cc(OC)c(OC)cc4[C@@H]2C3=O)O1 | 0.958 |
| COc1ccc(-c2oc3ccccc3c(=O)c2O)cc1OC | 0.733 |
| COc1cc2c(cc1OC)[C@@H]1C(=O)c3ccc4c(c3O[C@@H]1CO2)CC(C(C)C)O4 (stereo partly specified) | 0.985 |

Input line: Look up normalized growth for this compound: NC[C@H]1O[C@H](O[C@H]2[C@H](O)[C@@H](O[C@H]3O[C@H](CO)[C@@H](O)[C@H](N)[C@H]3O)[C@H](N)C[C@@H]2N)[C@H](N)C[C@@H]1O
Output line: 1.01

Input line: Would you kindly repeat that for CCOC([O-])=Nc1c[n+](N2CCOCC2)no1 ?
Output line: 0.999

* * *

- test: chemical genetic growth profiling, strain panel (AID 1159580);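 also: tested at 20 µM; growth read once vehicle control cultures reached saturation at 30 °C; 1 = growth at the plate median or of vehicle wells; lower values mean less growth of the strain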
- particulars: S. cerevisiae deletion strains, growth OD, locus YOR231W, strain MKK1
Out of some 5,500 compounds screened, about 2,000 (36%) were called active. About 18% were inconclusive and are not listed. Cut-off read from the data, not from the text of the source: active = normalized growth mostly below about 0.91 (no sharp cut-off); inconclusive = no clear call, values can overlap the other calls; inactive = mostly above about 0.92. Some of the results follow.
Give one outcome, nothing more. List: Y for active, N for inactive

| chem_smiles | group_label |
| --- | --- |
| O=C(OC[C@H]1O[C@H](OC(=O)c2cc(O)c(O)c(OC(=O)c3cc(O)c(O)c(O)c3)c2)[C@H](OC(=O)c2cc(O)c(O)c(OC(=O)c3cc(O)c(O)c(O)c3)c2)[C@@H](OC(=O)c2cc(O)c(O)c(OC(=O)c3cc(O)c(O)c(O)c3)c2)[C@@H]1OC(=O)c1cc(O)c(O)c(OC(=O)c2cc(O)c(O)c(O)c2)c1)c1cc(O)c(O)c(OC(=O)c2cc(O)c(O)c(O)c2)c1 | N |

Input line: Record request — test call for O=c1c(O)c(-c2ccc(O)c(O)c2)oc2cc(O)ccc12
Output line: Y

Input line: Would you kindly repeat that for Cc1onc(-c2c(Cl)cccc2Cl)c1C(=O)N[C@@H]1C(=O)N2[C@@H]1SC(C)(C)[C@@H]2C(=O)O ?
Output line: N

Input line: Would you kindly repeat that for NC(=O)NO ?
Output line: N

* * *

- test: chemical genetic growth profiling, strain panel (AID 1159580);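 also: tested at 20 µM; growth read once vehicle control cultures reached saturation at 30 °C; 1 = growth at the plate median or of vehicle wells; lower values mean less growth of the strain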
- particulars: S. cerevisiae deletion strains, growth OD, locus YOR136W, strain idh2
Hit rate of the full screen: of about 5,500 compounds, about 2,000 (36%) were called active. Another 18% or so got no clear call; they are omitted. No stated cut-off is given here; in the data, active means normalized growth mostly below about 0.91 (no sharp cut-off); inconclusive means no clear call, values can overlap the other calls; inactive means mostly above about 0.92. This is one part of the list.
Give one outcome, nothing more. List: active, inactive

Input line: Record request — test call for O=C(CCc1ccc(O)cc1)c1c(O)cc(O)cc1O[C@@H]1O[C@H](CO)[C@@H](O)[C@H](O)[C@H]1O
Output line: inactive

Input line: Would you kindly repeat that for CC(=O)c1cc2c(cc1O)OC(C)(C)C=C2 ?
Output line: inactive

Input line: Would you kindly repeat that for CC1(C)C(=O)[C@@H]2O[C@@H]2[C@@]2(C)C1CC(=O)[C@]1(C)C2CC[C@@]2(C)[C@H](c3ccoc3)OC(=O)[C@H]3O[C@]321 (stereo partly drawn) ?
Output line: inactive

Input line: Would you kindly repeat that for O=c1oc2c(O)c(O)cc3c(=O)oc4c(O)c(O)cc1c4c23 ?
Output line: active

Input line: Would you kindly repeat that for CC(=O)Oc1cccc2c1C(=O)c1c(OC(C)=O)cc(C(=O)O)cc1C2=O ?
Output line: active

Input line: Would you kindly repeat that for CN[C@@H]1[C@@H](O[C@H]2O[C@H](CO)[C@@H](N)[C@H](O)[C@H]2O)O[C@H]2C[C@@H](N)[C@H](O[C@H]3[C@H](O)[C@@H](O)[C@H](N)C[C@@H]3N)O[C@@H]2[C@@H]1O ?
Output line: inactive

Input line: Would you kindly repeat that for COP(=O)(OC)OC(Br)C(Cl)(Cl)Br (stereo not drawn) ?
Output line: inactive

Input line: Would you kindly repeat that for CN(C)CCc1c[nH]c2ccc(CS(=O)(=O)N3CCCC3)cc12 ?
Output line: inactive

* * *

- test: chemical genetic growth profiling, strain panel (AID 1159580);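 also: tested at 20 µM; growth read once vehicle control cultures reached saturation at 30 °C; 1 = growth at the plate median or of vehicle wells; lower values mean less growth of the strain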
- particulars: S. cerevisiae deletion strains, growth OD, locus YGL078C, strain dbp3
Screen size: about 5,500 compounds; about 2,000 (36%) were called active. Another 18% or so got no clear call; they are omitted. Cut-off read from the data, not from the text of the source: active = normalized growth mostly below about 0.91 (no sharp cut-off); inconclusive = no clear call, values can overlap the other calls; inactive = mostly above about 0.92. This is one part of the list.
Give one outcome, nothing more. List: active, inactive

Study these solved cases before continuing.
| compound | group_label |
| --- | --- |
| CC[C@@H](CO)NC(=O)[C@@H]1C=C2c3cccc4[nH]cc(c34)C[C@H]2N(C)C1 | inactive |
| COc1cccc(O)c1O | inactive |
| COc1ccc2c(c1)[C@]13CCCC[C@H]1[C@H](C2)N(C)CC3 | inactive |
| O=c1c(O)c(-c2ccc(O)c(O)c2)oc2cc(O)ccc12 | inactive |
| COc1cnc(NS(=O)(=O)c2ccc(N)cc2)nc1 | inactive |
| NC1C[C@H]1c1ccccc1 (stereo not given in full) | inactive |
| CN1CCN(CCC=C2c3ccccc3Sc3ccc(S(=O)(=O)N(C)C)cc32)CC1 | inactive |
| O=c1[nH]cnc2c1ncn2C1O[C@H](CO)[C@@H](O)[C@H]1O (stereo not given in full) | inactive |

Could you now consider this next compound?
Input line: Record request — test call for COc1ccc([C@H]2COc3c(ccc(O)c3OC)C2)c(OC)c1O
Output line: inactive
